Recorded measurements of TL1A Binding Level (Late), one per entry
- assayedTarget: T1, human TL1A extracellular domain with N-terminal HIS and FLAG tag (human, UniProt O95150 72-251)
- T1 construct: the whole entry is named
- T1 sequence: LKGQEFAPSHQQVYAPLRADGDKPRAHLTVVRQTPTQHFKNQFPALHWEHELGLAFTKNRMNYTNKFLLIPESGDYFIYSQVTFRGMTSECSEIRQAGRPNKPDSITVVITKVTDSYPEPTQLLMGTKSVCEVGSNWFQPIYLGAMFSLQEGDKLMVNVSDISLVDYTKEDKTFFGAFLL
- testProtocol: SPR Run 5, Ab from supernatant captured on Protein A, TL1A 5 ug/mL, timepoint 220
reportedMetric: TL1A Binding Level (Late)

320-379 (antibody, human IgG1, name in Kabat numbering, V domains shown, human IgG1, lambda) VH: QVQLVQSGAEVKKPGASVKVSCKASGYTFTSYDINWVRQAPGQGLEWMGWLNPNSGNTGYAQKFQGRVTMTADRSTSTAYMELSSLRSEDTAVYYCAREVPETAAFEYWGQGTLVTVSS VL: QSVLTQPPSVSGAPGQRVTISCTSSSSDIGAGLGVHWYQQLPGTAPKLLIEGYYNRPSGVPDRFSGSKSGTSASLTITGLLPEDEGDYYCQSYDGTLSYLFGGGTKLTVLG
1 RU
320-430 (antibody, human IgG1, name in Kabat numbering, V domains shown, human IgG1, lambda) VH: QVQLVQSGAEVKKPGASVKVSCKASGYTFYSYDINWVRQAPGQGLEWMGWLNPNSGNTGYAQKFQGRVTMTADRSTSTAYMELSSLRSEDTAVYYCAREVPETAAFEYWGQGTLVTVSS VL: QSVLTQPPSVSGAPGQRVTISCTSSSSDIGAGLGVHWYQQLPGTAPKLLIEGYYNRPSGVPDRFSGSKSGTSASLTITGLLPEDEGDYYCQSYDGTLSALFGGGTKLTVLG
6 RU
320-409 (antibody, human IgG1, name in Kabat numbering, V domains shown, human IgG1, lambda) VH: QVQLVQSGAEVKKPGASVKVSCKASGYKFTSYDINWVRQAPGQGLEWMGWLNPNSGNTGYAQKFQGRVTMTADRSTSTAYMELSSLRSEDTAVYYCAREVPETAAFEYWGQGTLVTVSS VL: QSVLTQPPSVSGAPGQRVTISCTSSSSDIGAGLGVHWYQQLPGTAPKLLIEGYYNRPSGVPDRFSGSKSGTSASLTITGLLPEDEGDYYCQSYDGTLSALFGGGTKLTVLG
10 RU
